System: Streptococcus pyogenes SSI-9
measurement_notes: Antibacterial activity assay of bead-derived peptides (three concentrations)
Format: cell-based
Set-up: key: +++: inhibition by the 640-fold diluted peptide solution; ++: inhibition by the 160-fold diluted solution; +: inhibition by the 40-fold diluted solution; -: no inhibition
test_settings: S. pyogenes, bead-derived peptide solution, three concentrations
Where a SMILES comes first, the peptide text is derived from it. [ ]: non-standard residue; d: D form. The star is where a group is joined. NHCH2CH2OH = OCCN*; For = O=C*

{"columns": ["molecule", "tested_system", "antibacterial activity"],
 "data": [
  ["CC(C)C[C@@H](NC(=O)[C@H](C)NC(=O)CNC(=O)[C@@H](NC=O)C(C)C)C(=O)N[C@@H](C)C(=O)N[C@@H](C(=O)N[C@H](C(=O)N[C@@H](C(=O)N[C@@H](Cc1c[nH]c2ccccc12)C(=O)N[C@H](CC(C)C)C(=O)N[C@@H](Cc1c[nH]c2ccccc12)C(=O)N[C@@H](C(=O)N[C@@H](Cc1c[nH]c2ccccc12)C(=O)N[C@H](CC(C)C)C(=O)N[C@@H](Cc1c[nH]c2ccccc12)C(=O)NCCO)C(C)C)[C@H](C)O)C(C)C)C(C)C [compound 1711] (For-VGA[dL]A[dV]V[dT]W[dL]W[dV]W[dL]W-NHCH2CH2OH)", "Streptococcus pyogenes SSI-9", "-"],
  ["CNC(=O)C[C@@H](NC(=O)[C@@H](NC(=O)[C@@H](CC(C)C)NC(=O)[C@H](C)NC(=O)[C@@H](CC(C)C)NC(=O)[C@H](C)NC(=O)CNC(=O)[C@@H](NC=O)C(C)C)C(C)C)C(=O)N[C@@H](Cc1c[nH]c2ccccc12)C(=O)N[C@H](CC(C)C)C(=O)N[C@@H](Cc1c[nH]c2ccccc12)C(=O)N[C@@H](C(=O)N[C@@H](Cc1c[nH]c2ccccc12)C(=O)N[C@H](CC(C)C)C(=O)N[C@@H](Cc1c[nH]c2ccccc12)C(=O)NCCO)C(C)C [compound 1479] (For-VGA[dL]A[dL]V[dD](NHMe)W[dL]W[dV]W[dL]W-NHCH2CH2OH)", "Streptococcus pyogenes SSI-9", "-"]
]}

====

Test system: P388 mouse leukemia cells
test_settings: 92 h
Where a SMILES comes first, the peptide text is derived from it. [ ]: non-standard residue; d: D form. The star is where a group is joined. NHCH2CH2OH = OCCN*; For = O=C*
observable: cell viability/% (%)
Write the number in % without appending the unit.

{"columns": ["molecule", "cell viability/% (%)"],
 "data": [
  ["CC(C)C[C@@H](NC(=O)[C@H](Cc1c[nH]c2ccccc12)NC(=O)[C@@H](CC(C)C)NC(=O)[C@H](Cc1c[nH]c2ccccc12)NC(=O)[C@H](NC(=O)[C@H](Cc1c[nH]c2ccccc12)NC(=O)[C@@H](CC(C)C)NC(=O)[C@@H](NC(=O)[C@H](NC(=O)[C@H](C)NC(=O)[C@H](NC(=O)[C@H](C)NC(=O)CNC(=O)[C@@H](NC=O)C(C)C)C(C)C)C(C)C)C(C)C)C(C)C)C(=O)N[C@@H](Cc1c[nH]c2ccccc12)C(=O)NCCO [compound 4329] (For-VGA[dV]A[dV]V[dL]W[dV]W[dL]W[dL]W-NHCH2CH2OH)", 14.3]
]}

Provide cell viability/%, system P388 mouse leukemia cells, entry CC(C)C[C@@H](NC(=O)[C@H](Cc1c[nH]c2ccccc12)NC(=O)[C@H](NC(=O)[C@H](Cc1c[nH]c2ccccc12)NC(=O)[C@H](NC(=O)[C@H](Cc1c[nH]c2ccccc12)NC(=O)[C@H](NC(=O)[C@@H](NC(=O)[C@H](NC(=O)[C@H](C)NC(=O)[C@H](NC(=O)[C@H](C)NC(=O)CNC(=O)[C@@H](NC=O)C(C)C)C(C)C)[C@H](C)O)C(C)C)C(C)C)C(C)C)C(C)C)C(=O)N[C@@H](Cc1c[nH]c2ccccc12)C(=O)NCCO [compound 379] (For-VGA[dV]A[dT]V[dV]W[dV]W[dV]W[dL]W-NHCH2CH2OH) 100.0
